- Tested on: 786-0
- Method description: NCI tumour cell line growth inhibition, 48 h
Where a name gives a salt, the structure may show the parent alone. The source made the active and inactive calls. No stated cut-off is given here; in the data, active = GI50 up to about 1.1 µM and inactive = higher.
Return exactly one item of active, inactive

Example entries and their recorded answers appear below.
Compound: CSC1=C(C#N)C(=O)N(c2ccc(C)cc2)C(=S)C1C#N (stereo not drawn)
Category label: inactive
--
Compound: CCC/C(Cl)=N\OC(=O)Nc1cccc(C(F)(F)F)c1
Category label: inactive
--
Compound: NCCCCNCCCN [SPERMIDINE TRIHYDROCHLORIDE]
Category label: inactive

Enquiry: Call for entry Cc1ccc2c(n1)C(=O)C=CC2=O :
Return: inactive

Enquiry: Call for entry COc1ccc2c(c1)O[C@@H]1[C@@H](OC3OC(CO)C(O)C(O)C3O)Oc3cc(OC)c(OC)cc3[C@]1(O)C2=O (stereo partly drawn) :
Return: inactive

Enquiry: Call for entry C[n+]1c2ccccc2c(CNC(CCC(N)=O)C(=O)O)c2ccccc21 (stereo not drawn) :
Return: active

Enquiry: Call for entry Cc1ccc(NC(=O)c2cc(S(=O)(=O)Nc3n[nH]c(=O)[nH]3)c(SSc3cc(Cl)c(C(=O)Nc4ccc(C)cc4)cc3S(=O)(=O)Nc3n[nH]c(=O)[nH]3)cc2Cl)cc1 :
Return: inactive

Enquiry: Call for entry C=C1C(=O)C23CC1CCC2C12CO[C@@H]4OCC(C)(CC[C@@H]1OC3=O)C42 (stereo partly drawn) :
Return: inactive

Enquiry: Call for entry O/N=C1/CCCc2nonc21 :
Return: inactive

Enquiry: Call for entry O=c1c(C(c2cc(OCc3ccccc3)cc(OCc3ccccc3)c2)c2c(O)oc3ccccc3c2=O)c(O)oc2ccccc12 :
Return: inactive

Enquiry: Call for entry CC(=O)OCc1ccc2c(c1)C(O)NC(=O)O2 (stereo not drawn) :
Return: inactive

Enquiry: Call for entry COc1ccc(CCN2CCN(CCc3ccc(OC)cc3)CC2)cc1 :
Return: inactive

Enquiry: Call for entry O=C(N/N=C/c1cccc(F)c1)c1ccncc1 :
Return: inactive

Enquiry: Call for entry CC1C[C@]2(C)C(NCCN)=Nc3ccccc3[C@@H]2N(C)c2ccccc21 (stereo partly drawn) :
Return: inactive

Enquiry: Call for entry CCN1C2=NCCN2S(=O)(=O)c2ccccc21 :
Return: inactive

Enquiry: Call for entry CCn1c2nc(=O)n(CCCCCCCCSC(c3ccccc3)(c3ccccc3)c3ccccc3)c(=O)c-2nc2ccccc21 :
Return: inactive

Enquiry: Call for entry CN(/N=C\c1ccc2ccccc2c1)C1=NCCCCN1 :
Return: inactive

Enquiry: Call for entry Nc1ccc([As](=O)(O)O)cc1 :
Return: inactive

Enquiry: Call for entry COCOC1C=CCCCC2=CC(C)=C(CC1)O2 (stereo not drawn) :
Return: inactive

Enquiry: Call for entry O=C(O)CC12C3C4C5C3C1C5C42 (stereo not drawn) :
Return: inactive

Enquiry: Call for entry CN(CC1(CO)CCC1)c1cc(Cl)nc(N)n1 :
Return: inactive

Enquiry: Call for entry CC1=C(C)C1[N+](=O)[O-] :
Return: inactive

Enquiry: Call for entry COc1cc(C2C(Cl)C(=O)N2NC(=O)c2ccc(NC(C)=O)cc2OC)ccc1O (stereo not drawn) :
Return: inactive

* * *

- System: HCT-116
- Method description: NCI tumour cell line growth inhibition, 48 h
Active and inactive are the calls of the source. Cut-off read from the data, not from the text of the source: active = GI50 up to about 1.1 µM and inactive = higher.
Return exactly one item of active, inactive

Enquiry: Call for entry N#C/C(=C\c1cc(O)c(O)c(O)c1)C(N)=O :
Return: inactive

Enquiry: Call for entry O=C1C=CC(=O)c2ccc(=O)ccc21 :
Return: inactive

Enquiry: Call for entry O=C(CC(C(=O)c1cccs1)c1ccsc1)c1ccccc1 (stereo not drawn) :
Return: inactive

Enquiry: Call for entry CC(=O)c1ccc(/N=N/c2ccc3nonc3c2N)cc1 :
Return: inactive

Enquiry: Call for entry NNC(=O)C1CCC(=O)N1S(=O)(=O)c1ccccc1 (stereo not drawn) :
Return: inactive

Enquiry: Call for entry Brc1c2nc3ccccc3nc2n2ccc3ccccc3c12 :
Return: inactive

Enquiry: Call for entry N#C/C(=C1\OC(=N)C(c2ccccc2)C1=O)c1ccccc1 (stereo not drawn) :
Return: inactive

Enquiry: Call for entry O=c1[nH]nc(NCc2ccccc2)c2nnn(Cc3ccccc3)c12 :
Return: inactive

Enquiry: Call for entry O=C1c2cc3c(cc2CC12Cc1cc4c(cc1C2=O)CCC4)CCCC3 (stereo not drawn) :
Return: inactive

Enquiry: Call for entry O=C(Oc1cccc2cccnc12)c1cc2cc(CCl)ccc2oc1=O :
Return: inactive

Enquiry: Call for entry CC1(CCCO)CCCCCCCCCC(C)(CCCO)C1=O (stereo not drawn) :
Return: inactive

* * *

- System: SF-268
- Method description: NCI tumour cell line growth inhibition, 48 h
Activity calls are given as the source filed them. Rule as the data show it: active = GI50 up to about 1.1 µM and inactive = higher.
Measured attribute: GI50

Use these answered entries as a reference point.
Molecule: O=C(O)C1C(C(=O)O)C23CC2(C(=O)O)C2(C(=O)O)CCC3=C3CCCC312 (stereo unspecified)
Reported: 4.51 µM (inactive)
--
Molecule: Cc1ccc(S(=O)(=O)N2CCSCCSCCSCCSCC2)cc1
Reported: 34.5 µM (inactive)
--
Molecule: O=C1C=C/C(=N/c2ccccc2)c2ccccc21
Reported: 11.3 µM (inactive)
--
Molecule: S=c1sc2sc(=S)sc2s1
Reported: 43.1 µM (inactive)
--
Molecule: COc1ccc(/C=C2\CCC(CCN(C)C)(C3=CCCC3)C2=O)cc1 (stereo unspecified)
Reported: 18.2 µM (inactive)

Please turn your attention to the following entry.
Enquiry: Which GI50 is listed for CC1(C)COC(c2ccc(C(F)(F)F)cc2C(O)c2ccc3ccccc3c2)=N1 (stereo unspecified) ?
Return: 82 µM (inactive)

* * *

- System: OVCAR-5
- Method description: NCI tumour cell line growth inhibition, 48 h
Structures can show the parent of a compound that is named as a salt. Activity calls are given as the source filed them. Rule as the data show it: active = GI50 up to about 1.1 µM and inactive = higher.
Reported GI50 is given for each of the following compounds.

Use these answered entries as a reference point.
Compound: Cc1cccc2c1C(=O)[C@@](C)([C@]1(C)Nc3cccc(C)c3C1=O)N2
Measured target: OVCAR-5
Measured attribute: GI50
Reported: > 100 µM (inactive)
//
Compound: COC(NC(N)=O)C(=O)O (stereo not given)
Measured target: OVCAR-5
Measured attribute: GI50
Reported: > 100 µM (inactive)
//
Compound: OC[C@H]1NC[C@@H](O)[C@@H](O)[C@H]1O
Measured target: OVCAR-5
Measured attribute: GI50
Reported: > 100 µM (inactive)
//
Compound: Cc1ccc(/C=N/Nc2cc(C)c3cccc(C)c3n2)s1
Measured target: OVCAR-5
Measured attribute: GI50
Reported: 9.91 µM (inactive)
//
Compound: COc1cc2c(c(O)c1OC)C(=O)[C@@H]1CCC(=O)N1C2
Measured target: OVCAR-5
Measured attribute: GI50
Reported: > 100 µM (inactive)
//
Compound: CCCCCCCCCCCCCCCC(=O)OC(COC(C)=O)CO[PH](=O)O (stereo not given)
Measured target: OVCAR-5
Measured attribute: GI50
Reported: 16.1 µM (inactive)
//
Compound: O=C1c2cc3c(cc2CC12Cc1cc4c(cc1C2=O)CCC4)CCCC3 (stereo not given)
Measured target: OVCAR-5
Measured attribute: GI50
Reported: > 100 µM (inactive)
//
Compound: COC1C=COC2(C)Oc3c(C)c(O)c4c(O)c(c(/C=N/N5CCN(N)CC5)c(O)c4c3C2=O)NC(=O)C(C)=CC=CC(C)C(O)C(C)C(O)C(C)C(OC(C)=O)C1C (stereo not given)
Measured target: OVCAR-5
Measured attribute: GI50
Reported: > 100 µM (inactive)

Enquiry: Look up GI50 with OVCAR-5 for this compound: CNC(C)Cc1ccccc1OC (stereo not given) [METHOXYPHENAMINE HYDROCHLORIDE]
Return: > 100 µM (inactive)

Enquiry: Look up GI50 with OVCAR-5 for this compound: Fc1cccc(Cl)c1C1SCc2nc3cc4ccccc4cc3n21 (stereo not given)
Return: > 100 µM (inactive)

Enquiry: Look up GI50 with OVCAR-5 for this compound: CC(=O)OCc1ccc2c(c1)C(O)NC(=O)O2 (stereo not given)
Return: > 100 µM (inactive)

Enquiry: Look up GI50 with OVCAR-5 for this compound: O=[N+]([O-])c1ccc2nc(O)c(/C=C(\O)c3ccccc3)nc2c1
Return: > 100 µM (inactive)

Enquiry: Look up GI50 with OVCAR-5 for this compound: Cc1c(NC(=O)CCCl)c(=O)oc2c(C)c3occc(=O)c3cc12
Return: > 100 µM (inactive)

Enquiry: Look up GI50 with OVCAR-5 for this compound: CC1C[C@]2(C)C(NCCN)=Nc3ccccc3[C@@H]2N(C)c2ccccc21 (stereo not given in full)
Return: 14 µM (inactive)

Enquiry: Look up GI50 with OVCAR-5 for this compound: CCC(CCN)(CCN)[N+](=O)[O-]
Return: > 100 µM (inactive)

Enquiry: Look up GI50 with OVCAR-5 for this compound: CCOc1ccccc1/N=N/C1C(=O)N(C(=O)CC(=O)Nc2ccccc2OC)N=C1C (stereo not given)
Return: > 100 µM (inactive)

Enquiry: Look up GI50 with OVCAR-5 for this compound: CO[C@H](c1ccccc1)[C@H](O)[C@](O)(c1ccccc1)P(=O)(OC)OC
Return: > 100 µM (inactive)

Enquiry: Look up GI50 with OVCAR-5 for this compound: CSC1=Nc2ccccc2N=C(c2ccc(Cl)cc2)C1
Return: 27.8 µM (inactive)

Enquiry: Look up GI50 with OVCAR-5 for this compound: Cc1cc(Cl)ccc1/N=N/C(=O)NNc1ccc(Cl)cc1C
Return: 15.8 µM (inactive)
